target: Nociceptin receptor (Homo sapiens); assay: Displacement of [125I][Tyr14]nociceptin from human cloned ORL1 receptor expressed in CHO cells; format: cell-based
pKi: −log10 of the molar value.
measured metric: pKi

smiles string: NC(=O)c1ccc([C@@]2(C(N)=O)C[C@H]3CC[C@@H](C2)N3C(c2ccccc2Cl)c2ccccc2Cl)nc1
measured metric: pKi
experimental result: 6.40

smiles string: NC(=O)[C@]1(c2ccc(O)cn2)C[C@H]2CC[C@@H](C1)N2C(c1ccccc1Cl)c1ccccc1Cl
measured metric: pKi
experimental result: 7.14

smiles string: NC(=O)[C@]1(c2cccnc2)C[C@H]2CC[C@@H](C1)N2C(c1ccccc1Cl)c1ccccc1Cl
measured metric: pKi
experimental result: 8.52

smiles string: N[C@]1(c2ccccn2)C[C@H]2CC[C@@H](C1)N2C(c1ccccc1Cl)c1ccccc1Cl
measured metric: pKi
experimental result: 8.00

----------
biological target: UniProt P35372; assay: Agonist activity at human mu opioid assessed as stimulation of GTPgammaS binding
Sequence (P35372 whole entry): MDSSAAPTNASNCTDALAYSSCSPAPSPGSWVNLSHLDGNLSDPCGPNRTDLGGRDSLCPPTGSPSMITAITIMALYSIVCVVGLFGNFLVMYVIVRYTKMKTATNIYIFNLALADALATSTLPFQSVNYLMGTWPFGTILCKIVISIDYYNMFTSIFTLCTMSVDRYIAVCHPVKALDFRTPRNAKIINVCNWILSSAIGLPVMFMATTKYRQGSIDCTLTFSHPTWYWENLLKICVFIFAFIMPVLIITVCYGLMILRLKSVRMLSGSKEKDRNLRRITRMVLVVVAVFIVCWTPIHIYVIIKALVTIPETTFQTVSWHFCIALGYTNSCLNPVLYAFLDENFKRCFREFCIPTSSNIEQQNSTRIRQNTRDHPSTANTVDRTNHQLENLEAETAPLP
pEC50: −log10 of the molar value.
Note to self: values exactly at 6 are T. So pEC50 at or above 6 is T, below is F.

smiles string: NC(=O)[C@]1(c2ccc(Cl)cn2)C[C@H]2CC[C@@H](C1)N2C(c1ccccc1Cl)c1ccccc1Cl
assayed target: UniProt P35372
class label: T
--
smiles string: COC(=O)N[C@]1(Cc2ccc(Cl)cc2)C[C@H]2CC[C@@H](C1)N2C(c1ccccc1Cl)c1ccccc1Cl
assayed target: UniProt P35372
class label: F
--
smiles string: NC(=O)[C@@]1(Cc2ccc(F)cc2)C[C@H]2CC[C@@H](C1)N2C(c1ccccc1Cl)c1ccccc1Cl
assayed target: UniProt P35372
class label: T
--
smiles string: NC(=O)[C@]1(c2ccc(Br)cn2)C[C@H]2CC[C@@H](C1)N2C(c1ccccc1Cl)c1ccccc1Cl
assayed target: UniProt P35372
class label: T
--
smiles string: CC(=O)N[C@]1(c2ccccn2)C[C@H]2CC[C@@H](C1)N2C(c1ccccc1Cl)c1ccccc1Cl
assayed target: UniProt P35372
class label: F
--
smiles string: COC(=O)N[C@]1(c2ccccn2)C[C@H]2CC[C@@H](C1)N2C(c1ccccc1Cl)c1ccccc1Cl
assayed target: UniProt P35372
class label: F

----------
species on record: Homo sapiens; assay: Selectivity for human cloned ORL1 receptor over human mu opioid receptor

smiles string: COC(=O)c1ccc([C@@]2(C(N)=O)C[C@H]3CC[C@@H](C2)N3C(c2ccccc2Cl)c2ccccc2Cl)nc1
fold change (FC): 4

smiles string: NC(=O)[C@]1(c2ccc(C(F)(F)F)cn2)C[C@H]2CC[C@@H](C1)N2C(c1ccccc1Cl)c1ccccc1Cl
fold change (FC): 4

smiles string: NC(=O)C[C@]1(Cc2ccc(F)cc2)C[C@H]2CC[C@@H](C1)N2C(c1ccccc1Cl)c1ccccc1Cl
fold change (FC): 63

smiles string: N[C@]1(c2ccccn2)C[C@H]2CC[C@@H](C1)N2C(c1ccccc1Cl)c1ccccc1Cl
fold change (FC): 32

----------
Form field: pKi (one value per entry).
biological target: Nociceptin receptor (Homo sapiens, UniProt P41146)
Sequence (P41146 whole entry): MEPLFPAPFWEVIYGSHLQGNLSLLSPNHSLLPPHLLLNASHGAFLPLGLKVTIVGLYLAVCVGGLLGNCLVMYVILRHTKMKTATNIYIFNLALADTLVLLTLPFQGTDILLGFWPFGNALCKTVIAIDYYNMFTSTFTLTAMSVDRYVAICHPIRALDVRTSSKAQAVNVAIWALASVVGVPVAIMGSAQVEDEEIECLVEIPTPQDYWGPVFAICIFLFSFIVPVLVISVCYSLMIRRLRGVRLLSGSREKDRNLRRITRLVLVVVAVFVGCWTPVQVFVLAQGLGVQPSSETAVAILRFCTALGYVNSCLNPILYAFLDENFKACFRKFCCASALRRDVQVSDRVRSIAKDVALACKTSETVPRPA
pKi: −log10 of the molar value.
measured metric: pKi

molecule: COC(=O)NC1(c2ccc(F)cn2)C[C@H]2CC[C@H](C1)N2C(c1ccccc1Cl)c1ccccc1Cl (relative stereo)
experimental result: 7.92
//
molecule: CC(=O)N[C@]1(c2ccc(F)cn2)C[C@H]2CC[C@@H](C1)N2C(c1ccccc1Cl)c1ccccc1Cl
experimental result: 8.00
//
molecule: NC(=O)[C@]1(c2ccccn2)C[C@H]2CC[C@@H](C1)N2C(c1ccccc1Cl)c1ccccc1Cl
experimental result: 8.40
//
molecule: NC(=O)[C@]1(c2cc(CF)c(F)cn2)C[C@H]2CC[C@@H](C1)N2C(c1ccccc1Cl)c1ccccc1Cl
experimental result: 7.72
//
molecule: NC(=O)[C@]1(c2ncc(F)cc2F)C[C@H]2CC[C@@H](C1)N2C(c1ccccc1Cl)c1ccccc1Cl
experimental result: 7.33
//
molecule: NC(=O)C[C@]1(Cc2ccc(O)cc2)C[C@H]2CC[C@@H](C1)N2C(c1ccccc1Cl)c1ccccc1Cl
experimental result: 7.77
//
molecule: Cc1ccc([C@@]2(C(N)=O)C[C@H]3CC[C@@H](C2)N3C(c2ccccc2Cl)c2ccccc2Cl)nc1
experimental result: 8.22
//
molecule: COc1ccc([C@@]2(C(N)=O)C[C@H]3CC[C@@H](C2)N3C(c2ccccc2Cl)c2ccccc2Cl)nc1
experimental result: 7.66
